Molecular target: HCV NS5B RNA-dependent RNA polymerase (Hepatitis C virus genotype 1b, UniProt P26663)
Sequence (P26663 2420-3010 limits assumed): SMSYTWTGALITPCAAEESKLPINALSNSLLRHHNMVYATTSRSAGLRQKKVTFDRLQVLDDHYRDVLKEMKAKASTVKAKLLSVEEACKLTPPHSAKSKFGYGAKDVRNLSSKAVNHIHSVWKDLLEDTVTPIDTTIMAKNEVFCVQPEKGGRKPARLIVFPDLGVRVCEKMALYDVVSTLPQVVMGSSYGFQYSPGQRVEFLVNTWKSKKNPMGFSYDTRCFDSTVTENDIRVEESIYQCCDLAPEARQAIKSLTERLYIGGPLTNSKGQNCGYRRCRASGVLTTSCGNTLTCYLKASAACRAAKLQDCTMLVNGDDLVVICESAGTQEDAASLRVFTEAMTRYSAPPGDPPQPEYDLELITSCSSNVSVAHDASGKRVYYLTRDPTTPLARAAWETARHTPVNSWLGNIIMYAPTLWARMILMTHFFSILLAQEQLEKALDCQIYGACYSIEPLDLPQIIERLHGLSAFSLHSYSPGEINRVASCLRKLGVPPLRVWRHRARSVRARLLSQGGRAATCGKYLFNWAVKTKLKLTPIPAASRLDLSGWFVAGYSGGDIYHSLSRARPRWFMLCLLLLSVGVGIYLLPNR
Assay: In vitro RNA-dependent RNA polymerase assay (Assay 1), polyA/oligo dT, TCA precipitation
Format: biochemical
Details: polyA/oligo dT template/primer, 200 ng NS5B, 2 h at 22° C.; read-out: RNA pol Assay 1 IC50 (μm)
Observation type: IC50

Hi! What's the reported IC50 for `O=C(O)[C@H](Cc1ccccc1)N(Cc1ccc(Br)o1)C(=O)c1ccc(Cl)cc1Cl` on HCV NS5B RNA-dependent RNA polymerase (Hepatitis C virus genotype 1b, UniProt P26663)?
5 to 20 µM

Which IC50 is reported with HCV NS5B RNA-dependent RNA polymerase (Hepatitis C virus genotype 1b, UniProt P26663) for this entry: `O=C(O)[C@H](Cc1ccccc1)N(Cc1ccc(Br)o1)C(=O)c1ccc(Cl)cc1I` ?
< 5 µM

I'm curious: which IC50 was measured for `O=C(O)[C@H](Cc1ccccc1)N(Cc1cccc(Br)c1)S(=O)(=O)c1ccc(Cl)cc1Cl` tested on HCV NS5B RNA-dependent RNA polymerase (Hepatitis C virus genotype 1b, UniProt P26663)?
> 20 µM

Under HCV NS5B RNA-dependent RNA polymerase (Hepatitis C virus genotype 1b, UniProt P26663): IC50 value of `O=C(O)[C@H](Cc1ccccc1)N(Cc1cccc(-c2cc3ccccc3o2)c1)C(=O)c1ccc(Cl)cc1Cl` ?
5 to 20 µM

Find the measured IC50: item `CCN(CC)c1ncc(CN(C(=O)c2ccc(Cl)cc2Cl)[C@@H](Cc2ccccc2)C(=O)O)s1` , target or system HCV NS5B RNA-dependent RNA polymerase (Hepatitis C virus genotype 1b, UniProt P26663).
< 5 µM

Short answer please: IC50, HCV NS5B RNA-dependent RNA polymerase (Hepatitis C virus genotype 1b, UniProt P26663), entry `COC(=O)c1ccc(-c2ccc(CN([C@@H](Cc3ccccc3)C(=O)O)S(=O)(=O)c3c(C)cc(OC)c(C)c3C)cc2)s1`
> 20 µM

Give recorded IC50 with HCV NS5B RNA-dependent RNA polymerase (Hepatitis C virus genotype 1b, UniProt P26663) for the following compound: `COc1cc(C)c(S(=O)(=O)N(Cc2ccc(Br)cc2)[C@@H](Cc2ccccc2)C(=O)O)c(C)c1C`
5 to 20 µM

Return IC50 measured with HCV NS5B RNA-dependent RNA polymerase (Hepatitis C virus genotype 1b, UniProt P26663) given this compound: `O=C(O)[C@H](Cc1ccccc1)N(Cc1sc(Br)cc1Br)C(=O)c1ccc(Cl)cc1I`
< 5 µM

What IC50 appears in the records for this compound with HCV NS5B RNA-dependent RNA polymerase (Hepatitis C virus genotype 1b, UniProt P26663)? `O=C(O)[C@H](Cc1ccccc1)N(Cc1ccc(Br)o1)C(=O)c1ccc(Cl)cc1Br`
< 5 µM

# query: IC50 | item `Cc1cccc(-c2ccc(CN(C(=O)c3ccc(Cl)cc3Cl)[C@@H](Cc3ccccc3)C(=O)O)o2)c1` | system: HCV NS5B RNA-dependent RNA polymerase (Hepatitis C virus genotype 1b, UniProt P26663)
< 5 µM

Write down the reported IC50 of O=C(O)CC(c1cccs1)N(Cc1ccc(-c2cccs2)cc1)C(=O)Nc1cc(Cl)nc(Cl)c1 (centres unmarked) , test system: HCV NS5B RNA-dependent RNA polymerase (Hepatitis C virus genotype 1b, UniProt P26663).
5 to 20 µM

Write down the reported IC50 of `O=C(O)[C@H](Cc1ccccc1)N(Cc1ccc(-c2ccc(Cl)cc2Cl)o1)C(=O)c1ccc(Cl)cc1Cl` , test system: HCV NS5B RNA-dependent RNA polymerase (Hepatitis C virus genotype 1b, UniProt P26663).
< 5 µM

Item: `O=C(O)[C@H](Cc1ccccc1)N(Cc1cc(-c2ccc(F)c(Cl)c2)cs1)C(=O)c1ccc(Cl)cc1Cl` Test system: HCV NS5B RNA-dependent RNA polymerase (Hepatitis C virus genotype 1b, UniProt P26663) Read-out: IC50 Value: ?
< 5 µM

So what IC50 did `O=C(O)[C@H](Cc1ccccc1)N(Cc1ccc(-c2nccs2)s1)C(=O)c1ccc(Cl)cc1Cl` get with HCV NS5B RNA-dependent RNA polymerase (Hepatitis C virus genotype 1b, UniProt P26663)?
< 5 µM

Quick check: IC50 on HCV NS5B RNA-dependent RNA polymerase (Hepatitis C virus genotype 1b, UniProt P26663), item `O=C(O)[C@H](Cc1ccccc1)N(Cc1ccc(-c2ccc(Cl)c(F)c2)o1)C(=O)c1ccc(Cl)cc1Cl` ?
< 5 µM

Reported IC50 for HCV NS5B RNA-dependent RNA polymerase (Hepatitis C virus genotype 1b, UniProt P26663), given `O=C(c1cccc(Cl)c1)c1cccc(CN(C(=O)c2ccc(Cl)cc2Cl)[C@@H](Cc2ccccc2)C(=O)O)c1` ?
< 5 µM

Param readout= IC50; system= HCV NS5B RNA-dependent RNA polymerase (Hepatitis C virus genotype 1b, UniProt P26663); entry= `COc1cc(C)c(S(=O)(=O)N(Cc2c(C(=O)c3ccc(Cl)cc3)oc3ccccc23)[C@@H](Cc2ccccc2)C(=O)O)c(C)c1C` ; returns value.
5 to 20 µM

Kindly state the measured IC50 obtained for `O=C(O)[C@H](Cc1ccccc1)N(Cc1ccc(-c2cccs2)s1)C(=O)c1ccc(Cl)cc1Cl` with HCV NS5B RNA-dependent RNA polymerase (Hepatitis C virus genotype 1b, UniProt P26663).
< 5 µM

Give IC50 (HCV NS5B RNA-dependent RNA polymerase (Hepatitis C virus genotype 1b, UniProt P26663)) of the following compound: `O=C(O)[C@H](Cc1ccccc1)N(Cc1ccc(-c2ccccc2Cl)o1)C(=O)c1ccc(Cl)cc1Cl`
< 5 µM

Please provide the recorded IC50 for `CN(C(=O)c1ccc(Cl)cc1Cl)[C@@H](Cc1ccccc1)C(=O)O` , tested on HCV NS5B RNA-dependent RNA polymerase (Hepatitis C virus genotype 1b, UniProt P26663).
5 to 20 µM
